// reported kon per item
target: T1, CD137-hisFc fusion protein (Sino Biological Cat 10041-H03H) (human, UniProt Q07011 24-186); test: BLI Octet, Fab;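 also: fab fragments expressed in E. coli, binding to human CD137 measured on Octet RED96, kinetics fitted with a 1:1 Langmuir model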
T1 construct: Bought; also called recombinant human CD137 (fused with human Fc and His tag); not shown: His tag and human Fc
Return type: number; implicit unit M⁻¹ s⁻¹.

Worked set:
Query: Return reported kon; argument: Fab 5353 (Fab, V domains shown, Fab from E. coli; also called VH26/VL26) VH: EVQLVESGGGLVQPGGSLRLSCAASGFTFSSYWIHWVRQAPGKGLEWVSVISGDGDTTYYADSVKGRFTISRDNSKNTLYLQLNSLRAEDTAVYYCARSRGLVLDAFDYWGQGTLVTVSS VL: DIQLTQSPSSLSASVGDRVTITCRASQSVSGRFLAWYQQKPGKAPKLLIYDASSLESGVPSRFSGSGSGTDFTLTISSLQPEDFATYYCQQYDYWPPYTFGQGTKVEIKR
Reply: 370000

Query: May I ask what kon has been recorded for Fab 4074 (Fab, V domains shown, Fab from E. coli) VH: EVQLVESGGGLVQPGGSLRLSCAASGFSLSTGGVGVSWIRQAPGKGLEWVSSISGSGGTTYYADSVKGRFTISRDNSKNTLYLQLNSLRAEDTAVYYCARDDLYSWYFDVWGQGTLVTVSS VL: DIQLTQSPSSLSASVGDRVTITCRASQGIGSSLAWYQQKPGKAPKLLIYAASSLQSGVPSRFSGSGSGTDFTLTISSLQPEDFATYYCQQGYYTWTFGQGTKVEIKR ?
Reply: 48000

More entries:
Query: Which kon value is on record for Fab 5310 (Fab, V domains shown, Fab from E. coli; also called VH15/VL15) VH: EVQLVESGGGLVQPGGSLRLSCAASGFSLSTSGVGVGWIRQAPGKGLEWLALIDWDDDKYYSPSLKSRLTISRDNSKNTLYLQLNSLRAEDTAVYYCARGGSDTVLGDWFAYWGQGTLVTVSS VL: DIQLTQSPSSLSASVGDRVTITCRASQSVSPYLAWYQQKPGKAPKLLIYDASSLESGVPSRFSGSGSGTDFTLTISSLQPEDFATYYCQQGYSLWTFGQGTKVEIKR ?
Reply: 810000

Query: I would be grateful if you could share the reported kon for Fab 4072 (Fab, V domains shown, Fab from E. coli; also called VH2/VL2) VH: EVQLVESGGGLVQPGGSLRLSCAASGFSLSTSGVAVSWIRQAPGKGLEWIGIINPNFGDTNYAQKFQGRVTISRDNSKNTLYLQLNSLRAEDTAVYYCARDEYYGGSYYFDYWGQGTLVTVSS VL: DIQLTQSPSSLSASVGDRVTITCRASQDVRTAVAWYQQKPGKAPKLLIYDASNLETGVPSRFSGSGSGTDFTLTISSLQPEDFATYYCQQSYDWPPTFGQGTKVEIKR .
Reply: 150000

Query: kon for Fab 5300 (Fab, V domains shown, Fab from E. coli; also called VH12/VL12) VH: EVQLVESGGGLVQPGGSLRLSCAASGYTFSNYWIHWVRQAPGKGLEWVSYISGDGDTTYYADSVKGRFTISRDNSKNTLYLQLNSLRAEDTAVYYCAREGSTTVAGDWFAYWGQGTLVTVSS VL: DIQLTQSPSSLSASVGDRVTITCRASQGIGSFLGWYQQKPGKAPKLLIYDASSLESGVPSRFSGSGSGTDFTLTISSLQPEDFATYYCQQYYSLVTFGQGTKVEIKR ?
Reply: 600000

Query: For the binder Fab 4217 (Fab, V domains shown, Fab from E. coli; also called VH10/VL10) VH: EVQLVESGGGLVQPGGSLRLSCAASGYSISSGYYWDWIRQAPGKGLEWVSSISGDGDTTYYADSVKGRFTISRDNSKNTLYLQLNSLRAEDTAVYYCAREYYGYGYALDYWGQGTLVTVSS VL: DIQLTQSPSSLSASVGDRVTITCRASQGISSYLAWYQQKPGKAPKLLIYDASSLESGVPSRFSGSGSGTDFTLTISSLQPEDFATYYCQQYYSTPLTFGQGTKVEIKR , what kon is on record?
Reply: 560000

Query: Item under review: Fab 5365 (Fab, V domains shown, Fab from E. coli; also called VH30/VL30) VH: EVQLVESGGGLVQPGGSLRLSCAASGFSLSTGGVGVGWIRQAPGKGLEWLALIDWADDKYYSPSLKSRLTISRDNSKNTLYLQLNSLRAEDTAVYYCARGGSDTVIGDWFAYWGQGTLVTVSS VL: DIQLTQSPSSLSASVGDRVTITCRASQSIGSYLAWYQQKPGKAPKLLIYDASNLETGVPSRFSGSGSGTDFTLTISSLQPEDFATYYCQQGYYLWTFGQGTKVEIKR . Reported kon?
Reply: 700000

Query: Recorded kon for Fab 5323 (Fab, V domains shown, Fab from E. coli; also called VH19/VL19) VH: EVQLVESGGGLVQPGGSLRLSCAASGFSLSTSGVGVGWIRQAPGKGLEWIGEIYHSGSTYYSPSLKSRVTISRDNSKNTLYLQLNSLKAEDTAVYYCAREGSDVVTGDWFAYWGQGTLVTVSS VL: DIQLTQSPSSLSASVGDRVTITCRASQGISSVLAWYQQKPGKAPKLLIYDASSLESGVPSRFSGSGSGTDFTLTISSLQPEDFATYYCQQGYSLWTFGQGTKVEIKR , please?
Reply: 780000

Query: # input binder: Fab 5318 (Fab, V domains shown, Fab from E. coli; also called VH18/VL18) VH: EVQLVESGGGLVQPGGSLRLSCAASGFSLSTSGVAVGWIRQAPGKGLEWLALIDWDDDKYYSTSLKSRLTISRDNSKNTLYLQLNSLRAEDTAVYYCAREGSTAVAGDWFAYWGQGTLVTVSS VL: DIQLTQSPSSLSASVGDRVTITCQASQDIRTFLAWYQQKPGKAPKLLIYDASNRATGIPSRFSGSGSGTDFTLTISSLQPEDFATYYCQQGYSTWTFGQGTKVEIKR ; wanted: its kon
Reply: 140000

Query: Entry under review: Fab 5351 (Fab, V domains shown, Fab from E. coli; also called VH25/VL25) VH: EVQLVESGGGLVQPGGSLRLSCAASGYSITSGHYWAWIRQAPGKGLEWVSSISGYGSTTYYADSVKGRFTISRDNSKNTLYLQLNSLRAEDTAVYYCARGGSDAVLGDWFAYWGQGTLVTVSS VL: DIQLTQSPSSLSASVGDRVTITCRASQGIGSFLAWYQQKPGKAPKLLIYDASNLETGVPSRFSGSGSGTDFTLTISSLQPEDFATYYCQQGYYLWTFGQGTKVEIKR . Reported kon?
Reply: 470000
